# target_entity: Dual specificity mitogen-activated protein kinase kinase 6 (Homo sapiens)
# Sequence (P52564 whole entry): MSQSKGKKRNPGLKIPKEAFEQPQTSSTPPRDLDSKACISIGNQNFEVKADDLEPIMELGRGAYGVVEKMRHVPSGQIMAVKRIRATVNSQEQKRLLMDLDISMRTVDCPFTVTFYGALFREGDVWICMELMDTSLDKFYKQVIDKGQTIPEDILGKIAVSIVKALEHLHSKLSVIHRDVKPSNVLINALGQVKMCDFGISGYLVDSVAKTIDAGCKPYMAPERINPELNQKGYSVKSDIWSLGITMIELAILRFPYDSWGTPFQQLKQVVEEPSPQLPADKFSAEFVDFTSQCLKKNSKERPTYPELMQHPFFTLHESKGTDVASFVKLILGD
# test_description: Inhibition of MKK6 (unknown origin)
pIC50: −log10 of the molar value.
reported_property: pIC50

Quote pIC50 reported for NC(=O)c1ccc2[nH]c3ncnc(-c4ccccc4)c3c2c1 please.
> 6.00
